- Measurement Target: human α-thrombin (recombinant) (human, UniProt P00734 328-363; P00734 364-622)
- Method Notes: thrombin amidolytic assay with S2238, tight-binding fit
pKi: −log10 of the molar value.
Rule: Y for pKi not less than 10, N for anything less.

INSERT INTO results (binder, class_label) VALUES
  ('CDEAVRAIPKMYSTAPPGDFEEIPDDAIEE (Ultravariegin with Cys at the N-terminus) [UV007]', 'Y'),
  ('MYSTAPPGDFEEIPDDAIEE (also called C-terminal cleavage product of ultravariegin) [UV011]', 'N'),
  ('MYSTAPPGDFEEIPDDAIEEGCCC (UV011 with C-terminal GCCC) [UV014]', 'N'),
  ('SDQGDVAEPKMYSTAPPFDFEAIPEEYLDDES [Variegin YS]', 'N'),
  ('SDEAVRAIPKMYSTAPPGDFEEIPEEYLDDES [UV005]', 'Y'),
  ('SDQGDVAIPKMYSTAPPGDFEEIPDDAIEE [UV003]', 'Y'),
  ('SDEAVRAEPKMHKTAPPGDFEEIPDDAIEE [UV004]', 'Y'),
  ('SDEAVRAIPKMYSTAPPGDFEEIPDDAIEEGCCC (Ultravariegin with C-terminal GCCC) [UV015]', 'Y');
